Ref: patent US9371290B2

- SYSTEM: Recombinant human VAP-1 SSAO (Homo sapiens)
- Construct: clarified NP40 cell lysate used directly
- TEST: In vitro inhibition of VAP-1 SSAO activity (coupled colorimetric method, benzylamine substrate)
- EXPERIMENTAL CONTEXT: CHO cell lysate, 1 mM benzylamine, read-out: VAP-1 SSAO Inhibitory activity IC50
EXPERIMENTAL ENDPOINT: pIC50
# pIC50 is unitless: minus log10 of the molar concentration; print number only

// O=c1cc(Oc2ccccc2)c(-c2nc[nH]n2)nn1-c1cccc(F)c1 [Compound 46] : pIC50 value = 6.47

Measured pIC50, NCCCNc1cc(=O)n(-c2ccc(Cl)cc2)nc1-c1nc[nH]n1 [Compound 78] : 6.10

Please fill in: pIC50 reported for O=c1cc(Nc2ccc(N3CCOCC3)cc2)c(-c2nc[nH]n2)nn1-c1ccc(Cl)cc1 [Compound 74] = 7.00

Lab note: O=c1cc(Nc2ccc3c(c2)OCO3)c(-c2nc[nH]n2)nn1-c1ccc(Cl)cc1 [Compound 59] gave pIC50 of 7.10

====

Could you please report measured melting point for the items listed next?

Quick note, melting point for C#CCN(C)c1cc(=O)n(-c2ccc(Cl)cc2)nc1-c1nc[nH]n1 landed at 210 to 212 °C

The recorded melting point for O=c1cc(Nc2ccc(N3CCCCC3)cc2)c(-c2nc[nH]n2)nn1-c1ccc(Cl)cc1 is 240 to 242 °C

Input N#CCNc1cc(=O)n(-c2ccc(Cl)cc2)nc1-c1nc[nH]n1 . Output melting point: 303 to 306 °C

Noted for O=c1cc(NCC2CC2)c(-c2nc[nH]n2)nn1-c1ccc(Cl)cc1 : its melting point reads 255 to 257 °C

Notebook: O=c1cc(N2CCCC2)c(-c2nc[nH]n2)nn1-c1ccccc1 , melting point read as 301 to 303 °C

====

Exercise: state measured melting point for each of the compounds provided.

Reported melting point ( Cn1nccc1-c1nn(-c2ccccc2)c(=O)cc1Oc1ccccc1 [Compound 1] ) = 118 to 119 °C

melting point for CN1CCN(c2cc(=O)n(-c3ccccc3)nc2C(N)=O)CC1.Cl is 248 to 250 °C

Per the records, this compound ( COc1cccc(-n2nc(-c3nc[nH]n3)c(Oc3ccccc3)cc2=O)c1 [Compound 27] ) has melting point equal to 253 to 254 °C

Record O=c1cc(Oc2ccccc2)c(-c2cccnc2)nn1-c1ccccc1 [Compound 9] . Reported melting point: 155 to 157 °C

Summary for this compound, O=c1cc(Oc2ccccc2)c(-c2nc[nH]n2)nn1-c1cccc(F)c1 [Compound 46] : melting point is 262 to 264 °C

Please fill in: melting point reported for Cc1noc(C)c1-c1nn(-c2ccccc2)c(=O)cc1Oc1ccccc1 [Compound 19] = 122 to 124 °C

// CN1CCC(Nc2cc(=O)n(-c3ccc(Cl)cc3)nc2-c2nc[nH]n2)CC1 [Compound 68] : melting point value = 227 to 230 °C

For reference, reported melting point for O=c1cc(Oc2ccccc2)c(-c2ccco2)nn1-c1ccccc1 [Compound 18] stands at 232 to 234 °C

The compound O=c1cc(NCc2ccccc2)c(-c2nc[nH]n2)nn1-c1ccccc1 [Compound 42] showed melting point equal to 192 to 193 °C

Entry under test: Cn1cnc(-c2nn(-c3ccccc3)c(=O)cc2Oc2ccccc2)n1 [Compound 41] . Its melting point was 235 to 237 °C

Record O=c1cc(Oc2ccc(Cl)cc2)c(-c2nc[nH]n2)nn1-c1ccccc1 [Compound 15] , field melting point: 235 to 240 °C

// recorded melting point for COc1ccc(Nc2cc(=O)n(-c3ccc(Cl)cc3)nc2-c2nc[nH]n2)cc1OC [Compound 60] : 227 to 230 °C

# melting point (compound: COC(=O)c1nn(-c2ccccc2)c(=O)cc1-n1cc(-c2ccccc2)nn1 [Compound 6] ) is 240 to 248 °C

melting point reported for this compound O=c1cc(Nc2ccc(N3CCOCC3)cc2)c(-c2nc[nH]n2)nn1-c1ccc(Cl)cc1 [Compound 74] : 248 to 250 °C

The value of melting point measured for the compound NCCCNc1cc(=O)n(-c2ccc(Cl)cc2)nc1-c1nc[nH]n1 [Compound 78] turned out to be 285 to 290 °C

Record summary for CC(C)Nc1cc(=O)n(-c2ccccc2)nc1-c1nc[nH]n1 [Compound 29] : reported melting point = 203 to 205 °C

# melting point of O=c1cc(Nc2ccccc2)c(-c2nc[nH]n2)nn1-c1cccc(F)c1 [Compound 69] = 233 to 235 °C

Noted for O=c1cc(Oc2ccccc2)c(-c2cccc(C(F)(F)F)c2)nn1-c1ccccc1 [Compound 21] : its melting point reads 146 to 148 °C

====

- SYSTEM: Recombinant human VAP-1 SSAO (Homo sapiens, UniProt Q16853)
- Construct: clarified NP40 cell lysate used directly
- TEST: In vitro inhibition of VAP-1 SSAO activity (coupled colorimetric method, benzylamine substrate)
- EXPERIMENTAL CONTEXT: CHO cell lysate, 1 mM benzylamine, read-out: VAP-1 SSAO Inhibitory activity IC50
pIC50: −log10 of the molar value.
# cutoff 7 applies to pIC50; >= gives satisfied, < gives not satisfied

Assess whether reported pIC50 for COc1cc(Nc2cc(=O)n(-c3ccc(Cl)cc3)nc2-c2nc[nH]n2)cc(OC)c1OC sits at 7 or higher. not satisfied

Please check the record CN1CCC(Nc2cc(=O)n(-c3ccc(Cl)cc3)nc2-c2nc[nH]n2)CC1 and state if its pIC50 is at or above 7. not satisfied

State whether the measured pIC50 reaches 7, counting equality as reaching it, for CC(C)Nc1cc(=O)n(-c2ccccc2)nc1-c1nc[nH]n1 not satisfied

Please tell me: is the compound CNc1cc(=O)n(-c2ccccc2)nc1-c1nc[nH]n1 at or over 7 in terms of pIC50? not satisfied

Evaluate O=c1cc(NCc2ccccc2)c(-c2nc[nH]n2)nn1-c1ccccc1 : pIC50 at minimum 7? not satisfied

For this compound, is measured pIC50 7 or higher? CN1CCN(c2ccc(Nc3cc(=O)n(-c4ccc(Cl)cc4)cc3-c3nc[nH]n3)cc2)CC1 satisfied

====

- SYSTEM: Recombinant human VAP-1 SSAO (Homo sapiens)
- Construct: clarified NP40 cell lysate used directly
- Sequence (Q16853 1-763): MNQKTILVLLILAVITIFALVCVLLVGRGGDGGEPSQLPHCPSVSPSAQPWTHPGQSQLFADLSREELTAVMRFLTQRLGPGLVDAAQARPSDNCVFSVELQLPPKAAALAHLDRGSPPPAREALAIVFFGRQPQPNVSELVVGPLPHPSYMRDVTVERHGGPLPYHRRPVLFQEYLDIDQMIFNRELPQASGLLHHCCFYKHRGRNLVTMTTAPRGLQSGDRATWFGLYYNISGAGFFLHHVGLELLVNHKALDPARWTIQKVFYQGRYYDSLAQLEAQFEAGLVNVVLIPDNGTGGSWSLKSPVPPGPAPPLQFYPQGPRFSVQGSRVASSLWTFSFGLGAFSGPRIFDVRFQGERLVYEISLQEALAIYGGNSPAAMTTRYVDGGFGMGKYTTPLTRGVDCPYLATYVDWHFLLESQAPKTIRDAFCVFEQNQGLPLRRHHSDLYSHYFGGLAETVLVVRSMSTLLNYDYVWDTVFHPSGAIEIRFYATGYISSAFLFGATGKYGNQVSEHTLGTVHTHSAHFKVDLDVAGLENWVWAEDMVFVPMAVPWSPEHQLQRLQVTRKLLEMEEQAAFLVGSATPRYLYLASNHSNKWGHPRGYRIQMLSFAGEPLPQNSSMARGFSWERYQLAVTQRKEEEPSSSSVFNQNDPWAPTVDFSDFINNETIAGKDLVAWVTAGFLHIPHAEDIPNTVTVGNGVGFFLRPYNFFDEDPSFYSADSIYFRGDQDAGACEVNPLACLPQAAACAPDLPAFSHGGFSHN
- TEST: In vitro inhibition of VAP-1 SSAO activity (coupled colorimetric method, benzylamine substrate)
- EXPERIMENTAL CONTEXT: CHO cell lysate, 1 mM benzylamine, read-out: VAP-1 SSAO Inhibitory activity IC50
Threshold check on IC50: strictly below 200 nM is y; on or above 200 nM is n.

Hello, I'm reviewing records and need to know if IC50 of C#CCNc1cc(=O)n(-c2ccc(Cl)cc2)nc1-c1nc[nH]n1 [Compound 75] is below 200 nM. Could you check? n

Please check: IC50 for COc1ccc(Nc2cc(=O)n(-c3ccc(Cl)cc3)nc2-c2nc[nH]n2)cc1 [Compound 57] , strictly under 200 nM or not? y

I'd appreciate it if you could check whether CN(C)CCNc1cc(=O)n(-c2ccccc2)nc1-c1nc[nH]n1 [Compound 13] has IC50 smaller than 200 nM. n

Please let me know if O=c1cc(Nc2ccc(N3CCN(Cc4ccccc4)CC3)cc2)c(-c2nc[nH]n2)nn1-c1ccc(Cl)cc1 [Compound 77] shows IC50 below 200 nM. n

Strictly below 200 nM in IC50? O=c1cc(Oc2ccccc2)c(-c2nc[nH]n2)nn1-c1ccc(Cl)cc1 [Compound 25] n

Just wondering, is IC50 of O=c1cc(Oc2ccccc2)c(-c2nc[nH]n2)cn1-c1ccccc1 [Compound 34] below 200 nM? n

Does O=c1cc(NC2CCCCC2)c(-c2nc[nH]n2)nn1-c1ccccc1 [Compound 43] have IC50 strictly under 200 nM? y

Consider the molecule CN(C)c1ccc(Nc2cc(=O)n(-c3ccc(Cl)cc3)nc2-c2nc[nH]n2)cc1 [Compound 65] . Is its IC50 strictly less than 200 nM? y
